B1: PBXIP1 (parent)
chain: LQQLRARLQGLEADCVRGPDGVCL

# Variants of: B1
# METHOD SUMMARY: protein stability index of a GFP-peptide fusion (GPS, HEK-293T) (PSI 1-6); higher = more stable;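 also: lentivirally expressed fusions sorted by FACS into six bins by GFP to DsRed ratio, PSI derived from sequencing read proportions per bin multiplied by bin number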
# APPLIED CONDITIONS: c terminus: a fixed tail appended
Please use the following protein stability index ranges when assigning a class: bucket A (below 2), bucket B (2 to below 3), bucket C (3 or more)

Past entries and their recorded results:
>>> print(df.to_string())
                    sequence_entry  assigned_category
0  LQQLRARLQGLEQDCVRGPDGVCL [A13Q]           bucket C
1   LQYLRARLQGLEADCVRGPDGVCL [Q3Y]           bucket A

Problem: Which band does LQQLRHRLQGLEADCVRGPDGVCL [A6H] fall in?
Result: bucket B

Problem: Which band does LQQLEARLQGLEADCVRGPDGVCL [R5E] fall in?
Result: bucket C

Problem: Which band does LCQLRARLQGLEADCVRGPDGVCL [Q2C] fall in?
Result: bucket C

Problem: Which band does LQQLRPRLQGLEADCVRGPDGVCL [A6P] fall in?
Result: bucket C

Problem: Which band does LQQLRARLQGLEADCVRGPDGVCR [L24R] fall in?
Result: bucket B
